test: NCI Yeast Anticancer Drug Screen. Data for the cln2 rad14 strain (AID 165);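 note: 0% = growth equal to vehicle treated cultures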; details: S. cerevisiae cln2 rad14 strain, at 50.0 µM
About 79,000 compounds went through this panel and 15% of them were active in at least one assay; those are over-represented in the sample as a whole. The source made the active and inactive calls. Cut-off read from the data, not from the text of the source: active = growth inhibition above about 70%; inactive = the rest.
Output constraint: value belongs to active, inactive

| COMPOUND | GROUP LABEL |
| --- | --- |
| O=C(C=C(C(F)(F)F)C(F)(F)F)/C=C/c1ccccc1 | active |
| O=C1NC2(CCN(CCCC3(c4ccc(F)cc4)OCCO3)CC2)Oc2ccccc21 | inactive |
| O=C(c1ccc2c(c1)no[n+]2[O-])N(CCO)CCO | active |
| COc1ccc2c(O)cc(C(=O)O)c(-c3ccccc3)c2c1 | inactive |
| Cc1oc([N+](=O)[O-])cc1C(=O)O | inactive |
| CC(=O)Nc1ccc(C(=O)NN2C(=O)C(Cl)C2c2ccc(Cl)cc2)cc1 (configuration not stated) | inactive |
| COC(=O)C1C2C=CC(C1C(=O)O)C1C(Br)=C(Br)C21 (configuration not stated) | inactive |
| O=C(COc1cc(Cl)c(Cl)cc1Cl)Nc1ccccc1Br | inactive |
| O=C1c2ccccc2C(=O)c2c1ccc1c2[nH]c2ccccc21 | inactive |
| Nc1nc([O-])c([I+]c2ccccc2)c(=O)[nH]1 | inactive |

Hello, I am checking results. What call was entered for CC(=O)N1CCc2ccccc2C1C1NCCc2ccccc21 (configuration not stated) ?
inactive

For CCC(C)(C)c1ccccc1 then?
inactive

* * *

Test: NCI Yeast Anticancer Drug Screen. Data for the sgs1 mgt1 strain (AID 161);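 note: 0% = growth of cultures given vehicle only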
Details: S. cerevisiae sgs1 mgt1 strain, at 50.0 µM, hits give high values
Description: Growth inhibition of yeast strains with defined genetic alterations is measured as a screen for potential anti-cancer activity. Selected strains with alterations in DNA damage repair or cell cycle control were exposed to compounds and growth inhibition was measured relative to vehicle treated controls. The strain used in this assay is sgs1 mgt1
Compounds without any hit were thinned out: in the full panel of roughly 79,000, 15% have a hit.
Below, each entry is listed with its recorded growth inhibition.
Number in %, nothing else.

Example cases with answers are listed next.
| COMPOUND | growth inhibition (%) |
| --- | --- |
| CCCCCCCCCCCCC(Br)C(=O)OCC (stereo not drawn) | 16.1 |
| CCN(CC)Cc1cc(Nc2cc(C)nc(/N=C(\N)Nc3cc(Cl)cc(Cl)c3)n2)ccc1O | 97.2 |
| CCCNC(C#N)c1ccc(C(C#N)NCCC)cc1 (stereo not drawn) | -12.6 |

I would be grateful if you could share the reported growth inhibition for COc1ccccc1C(=O)Nc1c(C)cccc1Cl .
-0.8

* * *

test: NCI Yeast Anticancer Drug Screen. Data for the mlh1 rad18 strain (AID 175); conditions: S. cerevisiae mlh1 rad18 strain growth inhibition; at 50.0 µM
About 79,000 compounds went through this panel and 15% of them were active in at least one assay; those are over-represented in the sample as a whole. Active and inactive are the calls of the source. No stated cut-off is given here; in the data, active means growth inhibition above about 70%; inactive means the rest.
Answer with one of the outcomes class 1 for active, class 0 for inactive

Examples from the recorded data:
| COMPOUND | GROUP LABEL |
| --- | --- |
| N#C/C(=C/c1cccc2ccccc12)C(=O)c1ccccc1 | class 0 |
| CCOC(=O)CCNc1nc(N)nc(C)c1NC=O | class 0 |
| CCCCN(CCCC)CC(O)c1cccc2c1cc(Cl)c1ccccc12 (stereo not given) | class 1 |
| C/C=C1\C(=O)OC2CCN3CCC(COC(=O)C(C)(O)C(C)C1O)C23 (stereo not given) | class 0 |
| CC1OC(OC2C(OC(=O)[C@@H]3CC(C)(C)C[C@H]4C5=CC[C@@H]6[C@@]7(C)C[C@H](O)[C@H](OC8OC(CO)C(O)C(O)C8O)[C@@](C)(CO)[C@@H]7[C@H](O)C[C@@]6(C)[C@]5(C)CC[C@@]34C)OCC(O)C2O)C(O)C(O)C1O (stereo not given in full) | class 0 |
| Cn1c(=O)nc2n(C)c3ccccc3cc-2c1=O | class 0 |

Short answer needed: outcome of this test for Cn1cnc2ncnc(Oc3ccc(Cl)cc3)c21 ?
class 0

Could you do the same for O=C(OCc1ccccc1CN1CCCCC1)c1ccc([N+](=O)[O-])cc1Cl , please?
class 0

Entry CCOC(=O)C(=O)C1C(=O)Nc2ccccc21 (stereo not given) please
class 0

Next entry: Brc1ccc(-c2ccc(-c3ccc(Br)cc3)s2)cc1
class 0
